Listed below: composite z-score values for each entry.
# System: Wnt5a (protein binding on small-molecule microarray)
# assay_info: Wnt5a binders on small-molecule microarray, primary screen, biophysical, 635/667 nm fluorescence (AID 1142);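 note: fluorescence read at 667 nm with signal to noise per printed feature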
# settings: 635 nm fluorescence, higher = more signal

Field: example entries. Status: answers known.
compound: CCCCC(CC)C(O)C1C=CC2C(=O)N(c3ccccc3)C(=O)C2N1Nc1ccccc1 (stereo not drawn)
system: Wnt5a (protein binding on small-molecule microarray)
value_kind: composite z-score
result: 0.0653

compound: CN1C=C(C(=O)OCCS(C)(=O)=O)C(C(=O)OCCS(C)(=O)=O)=CC(CCCO)=CC1C1CC1 (stereo not drawn)
system: Wnt5a (protein binding on small-molecule microarray)
value_kind: composite z-score
result: -0.102

compound: COc1ccccc1CN1C(=O)c2ccccc2[C@@H](C(=O)NCCN2CCOCC2)[C@@H]1c1ccc(CO)cc1
system: Wnt5a (protein binding on small-molecule microarray)
value_kind: composite z-score
result: 0.274

compound: Cc1ccccc1C(O)C1C=CC2C(=O)N(C)C(=O)C2N1N1CCCCC1 (stereo not drawn)
system: Wnt5a (protein binding on small-molecule microarray)
value_kind: composite z-score
result: 0.343

compound: CCOC(=O)C1=C[C@@H](CC)N(S(=O)(=O)c2ccc(C)cc2)[C@H]1c1ccccc1
system: Wnt5a (protein binding on small-molecule microarray)
value_kind: composite z-score
result: 0.214

compound: COCCOC(=O)N1C(=O)[C@@]2(c3cc(C#CCC(C(=O)OC)C(=O)OC)ccc31)[C@H](c1ccc(O)cc1)N1[C@H](c3ccccc3)[C@H](c3ccccc3)OC(=O)[C@H]1[C@@H]2C(N)=O
system: Wnt5a (protein binding on small-molecule microarray)
value_kind: composite z-score
result: 0.641

compound: COc1ccc(C#Cc2ccc3c(c2)[C@]2(C(=O)N3)[C@H](C(=O)NC[C@H](O)c3ccccc3)[C@H]3C(=O)O[C@H](c4ccccc4)[C@H](c4ccccc4)N3[C@@H]2c2ccc(OCCO)cc2)cc1
system: Wnt5a (protein binding on small-molecule microarray)
value_kind: composite z-score
result: 0.628

Switching to the query record.
**Query** Query for Wnt5a (protein binding on small-molecule microarray): what composite z-score does the record show for C=CCC(OC(C)=O)[C@@H]1[C@@H](N(Cc2cc3ccccc3o2)C(=O)c2ccc(C)cc2)c2cc(OCCCO)ccc2N1C(=O)c1ccc2ccccc2c1 (stereo partly drawn) ?
**Result** 0.132

###

# system: Dickkopf-related protein 1 (Homo sapiens) (UniProt O94907)
# Sequence (O94907 whole entry, looked up): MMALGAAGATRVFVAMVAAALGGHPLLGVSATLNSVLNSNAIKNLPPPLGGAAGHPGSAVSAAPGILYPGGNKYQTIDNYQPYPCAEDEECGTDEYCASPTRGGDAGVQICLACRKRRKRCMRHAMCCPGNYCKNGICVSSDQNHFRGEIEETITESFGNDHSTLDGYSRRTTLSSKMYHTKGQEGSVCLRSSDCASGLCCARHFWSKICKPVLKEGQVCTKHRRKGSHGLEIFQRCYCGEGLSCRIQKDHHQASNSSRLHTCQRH
# assay_info: DKK1 binders on small-molecule microarrays, primary screen, biochemical, small-molecule microarray, 635 nm fluorescence scan (AID 1106);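 note: score merges emission near 667 nm with signal to noise over three replicate slides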
# settings: DKK1 binding, higher = more signal
Label Condition met when composite z-score is at or above 0.3; otherwise label Condition not met.

**Query** // inclusive: composite z-score at least 0.3? input: O=C/C=C/c1ccc2c(c1)OCO2
**Result** Condition met

**Query** // inclusive: composite z-score at least 0.3? input: O=C1N(CCS(=O)(=O)c2ccccc2)c2ccccc2C[C@@]12COC(c1ccc(OCCCO)cc1)=N2
**Result** Condition met

**Query** // inclusive: composite z-score at least 0.3? input: CN(C)C(=O)[C@]1(CCC(=O)OC(C)(C)C)N=C(c2ccc(OCCCO)cc2)O[C@@H]1c1ccccc1N=[N+]=[N-]
**Result** Condition not met

**Query** // inclusive: composite z-score at least 0.3? input: CCOC(=O)[C@H]1C[C@H]2O[C@@]23C[C@H]1C(=O)N1CCCC1[C@@H]3O[Si](C)(C)C(C)(C)C (stereo not given in full)
**Result** Condition not met

**Query** // inclusive: composite z-score at least 0.3? input: CCCCC(O)C1C=CC2C(=O)N(C3CCCCC3)C(=O)C2N1Nc1ccc(OC)cc1 (stereo not given)
**Result** Condition not met

**Query** // inclusive: composite z-score at least 0.3? input: COCCCNC(=O)[C@@]1(c2ccc([N+](=O)[O-])cc2)CC(=O)N(CC23CC4CC(CC(C4)C2)C3)[C@@H]1c1ccc(CO)cc1
**Result** Condition met

**Query** // inclusive: composite z-score at least 0.3? input: C=CCN1C(=O)[C@]2(O[C@H](CCO)[C@@H]([Si](C)(C)c3ccc(OC)cc3)[C@@H]2C)c2cc(NC(=O)[C@H](C)O)ccc21
**Result** Condition not met

**Query** // inclusive: composite z-score at least 0.3? input: COCC1=C2[C@@H](CCc3ccccc3)OB(O)C[C@@H]2[C@@H]2C(=O)N(Cc3ccccc3)C(=O)[C@@H]2C1
**Result** Condition not met

**Query** // inclusive: composite z-score at least 0.3? input: CCOC(=O)C1=CCC(c2ccc(C#N)cc2)N(S(=O)(=O)c2ccc(C)cc2)C1 (stereo not given)
**Result** Condition not met

**Query** // inclusive: composite z-score at least 0.3? input: C[N+](C)(C)CCCCCCNC(=O)[C@H]1C[C@H]2C(=O)N3CCC[C@H]3C(=O)N2[C@H]1c1ccc(O)cc1
**Result** Condition met

**Query** // inclusive: composite z-score at least 0.3? input: COC(=O)C(CC#Cc1ccc2c(c1)[C@]1(C(=O)N2)[C@H](C(=O)NC[C@H](O)c2ccccc2)[C@H]2C(=O)O[C@H](c3ccccc3)[C@H](c3ccccc3)N2[C@@H]1c1ccc(OCCO)cc1)C(=O)OC
**Result** Condition met

**Query** // inclusive: composite z-score at least 0.3? input: CCOC(=O)C1=CC[C@@H](c2ccccc2Cl)N(S(=O)(=O)c2ccc(C)cc2)C1
**Result** Condition not met

**Query** // inclusive: composite z-score at least 0.3? input: [N-]=[N+]=Nc1ccccc1[C@H]1OC(c2ccc(OCCCO)cc2)=N[C@@]1(CCS(=O)(=O)c1ccccc1)C(=O)O
**Result** Condition not met

**Query** // inclusive: composite z-score at least 0.3? input: C=CC[C@@]1(C(=O)NCC(O)CO)N=C(c2ccc(OCCCO)cc2)O[C@@H]1c1ccccc1N=[N+]=[N-] (stereo not given in full)
**Result** Condition not met

**Query** // inclusive: composite z-score at least 0.3? input: Cc1ccc(F)cc1S(=O)(=O)N[C@@H]1CCN(Cc2ccc(-c3ccccc3)cc2)C1
**Result** Condition not met

**Query** // inclusive: composite z-score at least 0.3? input: CCCNC(=O)[C@@]1(c2ccc([N+](=O)[O-])cc2)CC(=O)N(CC23CC4CC(CC(C4)C2)C3)[C@@H]1c1ccc(CO)cc1
**Result** Condition not met

**Query** // inclusive: composite z-score at least 0.3? input: N#Cc1ccc(NN2C(C(O)c3cccs3)C=CC3C(=O)N(c4ccccc4)C(=O)C32)cc1 (stereo not given)
**Result** Condition not met

**Query** // inclusive: composite z-score at least 0.3? input: Cc1cc(C)c(C(O)C2C=CC3C(=O)N(C)C(=O)C3N2Nc2ccccc2)c(C)c1 (stereo not given)
**Result** Condition not met

**Query** // inclusive: composite z-score at least 0.3? input: O=C1O[C@H](c2ccccc2)[C@H](c2ccccc2)N2[C@H]1[C@@H](C(=O)Nc1nc3ccccc3s1)[C@]1(C(=O)Nc3ccccc31)[C@H]2c1ccc(O)cc1
**Result** Condition met

**Query** // inclusive: composite z-score at least 0.3? input: O=C1O[C@@H](c2ccccc2)[C@@H](c2ccccc2)N2[C@@H](c3ccc(O)cc3)[C@]3(C(=O)Nc4ccc(C#CC5(O)CCCCCC5)cc43)[C@@H](C(=O)N3CCCCCCC3)[C@H]12
**Result** Condition met

**Query** // inclusive: composite z-score at least 0.3? input: COCCOC(=O)N1C(=O)[C@@]2(c3cc(C#Cc4ccc(OC)cc4)ccc31)[C@H](C(=O)N1CCN(c3ncccn3)CC1)[C@H]1C(=O)O[C@H](c3ccccc3)[C@H](c3ccccc3)N1[C@@H]2c1ccc(O)cc1
**Result** Condition met

###

# assay_info: basal RPMI8226 viability, no added stimulus, profiling panel, cell-based, calcein-AM fluorescence, 48 h, PK04 Diversity Set (AID 1166);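 note: cells grown under basal conditions without added stimulus; test concentration not given here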
# settings: RPMI8226 myeloma viability, higher = more signal
API: label(entry) gives 1.0 if the entry's z-score is strictly smaller than -1; on equality or larger values it gives 0.0.

Please review the following examples before continuing.
compound: CCOC(=O)C[C@H]1[C@H](OC(=O)c2ccc(-c3ccccc3)cc2)[C@@H](NC(=O)c2ccc(-c3ccccc3)cc2)c2cc(OCCCO)ccc2N1C(=O)Cc1ccc(OC)cc1
cat: 0.0
--
compound: CN1C(=O)C2C=CC(C(O)c3ccccn3)N(Nc3ccccc3)C2C1=O (centres undefined)
cat: 0.0
--
compound: CCCCCN1CC=CC23O[C@@H]4C=CCOC(=O)[C@@H]4[C@H]2C(=O)N(CCCO)[C@@H]3C1=O (some centres undefined)
cat: 0.0
--
compound: COCCOC(=O)N1C(=O)[C@@]2(c3cc(C#CCCO)ccc31)[C@H](c1ccc(O)cc1)N1[C@H](c3ccccc3)[C@H](c3ccccc3)OC(=O)[C@H]1[C@@H]2C(N)=O
cat: 0.0
--
compound: O=C1OCCC/C=C\[C@H]2OC34C=CCN(Cn5nnc6ccccc65)C(=O)[C@H]3N(CCCCCO)C(=O)[C@@H]4C12 (some centres undefined)
cat: 0.0
--
compound: COCCOC(=O)N1C(=O)[C@@]2(c3cc(C#CCC(C(=O)OC)C(=O)OC)ccc31)[C@H](c1ccccc1OCCO)N1[C@H](c3ccccc3)[C@H](c3ccccc3)OC(=O)[C@H]1[C@@H]2C(N)=O
cat: 1.0
--
compound: COCCOC(=O)N1C(=O)[C@@]2(c3cc(C#CC4=CCCCC4)ccc31)[C@H](C(=O)NC[C@H](O)c1ccccc1)[C@H]1C(=O)O[C@H](c3ccccc3)[C@H](c3ccccc3)N1[C@@H]2c1ccc(O)cc1
cat: 1.0
--
compound: COC(=O)[C@@]1(Cc2ccc(OC)cc2)[C@H]2c3cc(C(=O)N(C)C)n(Cc4c(OC)[nH]cc(C)c4=O)c3C[C@H]2CN1C(=O)c1ccccc1
cat: 0.0

**Query** Below -1 on z-score? Entry CCC[C@@H]1C=C(C(=O)O)[C@H](c2ccc(C)cc2)N1S(=O)(=O)c1ccc(C)cc1
**Result** 0.0
